Target: UniProtKB P16068
Sequence (P16068 1-619): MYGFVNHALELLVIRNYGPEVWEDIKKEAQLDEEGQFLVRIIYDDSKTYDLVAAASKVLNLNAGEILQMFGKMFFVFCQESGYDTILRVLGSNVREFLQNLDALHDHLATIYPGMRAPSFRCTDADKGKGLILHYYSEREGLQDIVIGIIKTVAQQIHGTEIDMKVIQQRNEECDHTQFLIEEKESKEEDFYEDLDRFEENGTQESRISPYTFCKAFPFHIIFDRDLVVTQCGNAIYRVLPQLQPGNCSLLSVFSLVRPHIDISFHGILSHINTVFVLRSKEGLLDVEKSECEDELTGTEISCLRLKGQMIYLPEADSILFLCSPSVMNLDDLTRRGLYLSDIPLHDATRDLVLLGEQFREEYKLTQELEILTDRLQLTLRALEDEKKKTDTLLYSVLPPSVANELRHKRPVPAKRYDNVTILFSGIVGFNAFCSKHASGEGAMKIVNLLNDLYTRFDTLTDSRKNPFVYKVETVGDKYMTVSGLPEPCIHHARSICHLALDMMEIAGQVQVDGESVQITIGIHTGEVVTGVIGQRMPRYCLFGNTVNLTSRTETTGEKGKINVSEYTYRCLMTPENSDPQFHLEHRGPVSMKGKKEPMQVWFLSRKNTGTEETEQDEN
Sequence (P19687 1-691 partner): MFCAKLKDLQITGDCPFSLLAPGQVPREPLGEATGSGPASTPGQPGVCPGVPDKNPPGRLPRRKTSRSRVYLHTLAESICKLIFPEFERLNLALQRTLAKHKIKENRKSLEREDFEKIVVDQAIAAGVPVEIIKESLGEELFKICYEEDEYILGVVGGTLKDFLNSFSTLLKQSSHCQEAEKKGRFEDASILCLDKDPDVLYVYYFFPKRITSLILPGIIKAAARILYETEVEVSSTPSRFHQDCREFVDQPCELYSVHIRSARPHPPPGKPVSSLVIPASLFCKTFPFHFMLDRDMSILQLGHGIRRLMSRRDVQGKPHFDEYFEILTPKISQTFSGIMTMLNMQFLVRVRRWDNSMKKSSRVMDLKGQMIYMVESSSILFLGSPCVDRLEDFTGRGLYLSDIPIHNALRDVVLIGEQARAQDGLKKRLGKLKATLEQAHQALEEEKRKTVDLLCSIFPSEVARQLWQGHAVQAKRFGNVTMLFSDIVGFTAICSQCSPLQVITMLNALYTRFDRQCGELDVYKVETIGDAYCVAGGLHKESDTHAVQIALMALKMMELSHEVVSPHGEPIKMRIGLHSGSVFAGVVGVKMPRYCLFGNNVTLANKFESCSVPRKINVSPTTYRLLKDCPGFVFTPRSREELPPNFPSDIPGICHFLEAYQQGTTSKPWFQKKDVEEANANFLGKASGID
Experiment: Activation of heme-free soluble guanylate cyclase
Settings: read-out: affinity
observable: EC50 (nM)
Numbers only, in nM.

QUERY: Item `COc1cc(NS(=O)(=O)c2ccc(Cl)cc2)c(C(=O)Nc2ccc(S(=O)(=O)N3CCSCC3)cc2)cc1OC` has what recorded EC50?
RESULT: 2400

All values here come from patent US7309579B2.
